Experiment: Volume distribution was determined
Format: ADME, organism-based
Details: human, in vivo
MEASUREMENT LABEL: VD (L/kg)

| COMPOUND | EXPERIMENTAL RESULT |
| --- | --- |
| CCCCc1nc(Cl)c(CO)n1Cc1ccc(-c2ccccc2-c2nn[nH]n2)cc1 [LOSARTAN] | 0.38 |

###

Test: Volume distribution was determined
Format: ADME, organism-based
Settings: human, in vivo
Consider the following molecules and their measured Vd readings.

| LINE NOTATION | Vd [L/kg] |
| --- | --- |
| CCCCC(=O)N(Cc1ccc(-c2ccccc2-c2nnn[nH]2)cc1)[C@H](C(=O)O)C(C)C | 0.22 |
| CCCCC1=NC2(CCCC2)C(=O)N1Cc1ccc(-c2ccccc2-c2nnn[nH]2)cc1 | 0.9 |
| CCCCc1ncc(/C=C(\Cc2cccs2)C(=O)O)n1Cc1ccc(C(=O)O)cc1 | 0.16 |
| CCCc1nc2c(C)cc(-c3nc4ccccc4n3C)cc2n1Cc1ccc(-c2ccccc2C(=O)O)cc1 | 4.54 |

###

Experiment: Percentage modification of drug adsorbed after administration to human
Format: ADME

| LINE NOTATION | UNIT INFO | Modification of adsorbed drug |
| --- | --- | --- |
| Cc1nc(C)c2c(n1)N(Cc1ccc(-c3ccccc3-c3nnn[nH]3)cc1)C(=O)CC2 | % | 2 |
| CCCCC1=NC2(CCCC2)C(=O)N1Cc1ccc(-c2ccccc2-c2nnn[nH]2)cc1 | % | 20 |
| CCCCc1nc(Cl)c(CO)n1Cc1ccc(-c2ccccc2-c2nn[nH]n2)cc1 | % | 75 |
| CCCc1nc2c(C)cc(-c3nc4ccccc4n3C)cc2n1Cc1ccc(-c2ccccc2C(=O)O)cc1 | % | 16 |
| CCCCc1ncc(/C=C(\Cc2cccs2)C(=O)O)n1Cc1ccc(C(=O)O)cc1 | % | 20 |
| CCOc1nc2cccc(C(=O)O)c2n1Cc1ccc(-c2ccccc2-c2nnn[nH]2)cc1 | % | 20 |
| CCCCC(=O)N(Cc1ccc(-c2ccccc2-c2nnn[nH]2)cc1)[C@H](C(=O)O)C(C)C | % | 9 |

###

Consider the following molecules and their measured Affinity readings.
Target: Type-1 angiotensin II receptor (Homo sapiens) (UniProt P30556)
Sequence (P30556 whole entry): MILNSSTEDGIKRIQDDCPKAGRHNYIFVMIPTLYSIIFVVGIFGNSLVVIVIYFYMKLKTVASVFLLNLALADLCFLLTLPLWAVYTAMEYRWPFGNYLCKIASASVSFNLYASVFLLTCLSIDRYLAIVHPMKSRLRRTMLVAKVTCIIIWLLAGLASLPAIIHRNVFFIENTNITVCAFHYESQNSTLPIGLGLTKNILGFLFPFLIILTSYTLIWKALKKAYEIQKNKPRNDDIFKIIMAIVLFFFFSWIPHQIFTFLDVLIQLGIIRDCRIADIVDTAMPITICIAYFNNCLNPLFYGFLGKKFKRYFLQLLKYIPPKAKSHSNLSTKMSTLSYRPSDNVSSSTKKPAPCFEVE
Assay: Binding affinity for AT1 receptor

| MOLECULE | TESTED SYSTEM | Affinity |
| --- | --- | --- |
| Cc1nc(C)c2c(n1)N(Cc1ccc(-c3ccccc3-c3nnn[nH]3)cc1)C(=O)CC2 | Type-1 angiotensin II receptor (Homo sapiens) (UniProt P30556) | 1.2 nM |
| CCCCc1nc(Cl)c(C(=O)O)n1Cc1ccc(-c2ccccc2-c2nn[nH]n2)cc1 [CARBOXYLIC ACID METABOLITE] | Type-1 angiotensin II receptor (Homo sapiens) (UniProt P30556) | 1.3 nM |
| CCCc1nc2c(C)cc(-c3nc4ccccc4n3C)cc2n1Cc1ccc(-c2ccccc2C(=O)O)cc1 | Type-1 angiotensin II receptor (Homo sapiens) (UniProt P30556) | 1 nM |
| Cc1nc(C)c2c(O)cc(=O)n(Cc3ccc(-c4ccccc4-c4nn[nH]n4)cc3)c2n1 | Type-1 angiotensin II receptor (Homo sapiens) (UniProt P30556) | 0.4 nM |
